Assay System: RhlR (Pseudomonas aeruginosa)
Construct: expressed in transfected cells; host or cells: E. coli sdiA variant co-transformed with pJN105R and pSC11 (RhlA::lacZ)
Method Description: cell-based
Test Parameters: Table 4; concentration not given
Marks after values point to notes of the source that are not given here.
The following molecules are shown together with reported Relative RhIR activity (%) Agonism values.
Reported Endpoint: Relative RhIR activity (%) Agonism

Molecule | Reported Endpoint | Observed
CCCC(=O)NC1CCCC1 [Compound 1d, N-cyclopentylbutyramide, reference compound] | Relative RhIR activity (%) Agonism | 4** %
CCCCCCCCC(O)CC(=O)CCc1ccc(O)c(OC)c1 (centres unmarked) | Relative RhIR activity (%) Agonism | 2** %
CCCC(O)CC(=O)/C=C/c1ccc(OC)cc1 (centres unmarked) [Compound 11f] | Relative RhIR activity (%) Agonism | 1** %
CCCC(O)CC(=O)/C=C/c1ccc(O)cc1 (centres unmarked) [Compound 11d] | Relative RhIR activity (%) Agonism | 1** %
CCCCC[C@@H](O)C#Cc1ccc(O)c(OC)c1 [Compound 23b] | Relative RhIR activity (%) Agonism | 3** %
CCCCCC(O)C#Cc1ccc(O)c(OC)c1 (racemic) [Compound 23a] | Relative RhIR activity (%) Agonism | 3** %
CCCCCC(=O)C#Cc1ccc(O)c(OC)c1 | Relative RhIR activity (%) Agonism | 3** %
CCCCCCCCCC(O)CC(=O)CCc1ccc(O)c(OC)c1 (centres unmarked) | Relative RhIR activity (%) Agonism | 2** %
CCCC(O)CC(=O)/C=C/c1cccc(OC)c1 (centres unmarked) [Compound 11c] | Relative RhIR activity (%) Agonism | 2** %
CCCCC[C@H](O)C#Cc1ccc(O)c(OC)c1 [Compound 23c] | Relative RhIR activity (%) Agonism | 3** %
CCCC(O)CC(=O)/C=C/c1ccc(O)c(OC)c1 (centres unmarked) [Compound 11a] | Relative RhIR activity (%) Agonism | 4** %

---

The following compounds are shown together with reported remaining activity at 100 µM values.
Assay System: RhlR (Pseudomonas aeruginosa, UniProt P54292)
Construct: expressed in transfected cells; host or cells: E. coli sdiA variant co-transformed with pJN105R and pSC11 (RhlA::lacZ)
Sequence (P54292 whole entry): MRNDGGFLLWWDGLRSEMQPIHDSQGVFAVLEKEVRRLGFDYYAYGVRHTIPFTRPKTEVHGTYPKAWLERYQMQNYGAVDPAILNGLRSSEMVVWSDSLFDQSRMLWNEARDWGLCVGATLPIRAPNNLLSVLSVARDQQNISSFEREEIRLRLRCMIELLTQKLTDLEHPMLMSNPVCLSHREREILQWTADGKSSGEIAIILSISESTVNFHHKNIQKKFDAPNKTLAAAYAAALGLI
Method Description: cell-based
Test Parameters: read-out: Relative RhIR Activity (%) Antagonism 100, Table 3; 100 (μM)

Compound | remaining activity at 100 µM
CCC[C@H](O)C#Cc1ccc(F)c(F)c1 [Compound 33c, (S)-1-(3,4-Difluorophenyl)hex-1-yn-3-ol] | 38%
CCCCC(=O)C#Cc1ccc(F)c(F)c1 [Compound 31, 1-(3,4-Difluorophenyl)hept-1-yn-3-one] | 16%
CCCC(O)CC(=O)/C=C/c1ccc(O)c(OC)c1 (stereo not drawn) [Compound 11a] | 65%

---

Assay System: RhlR (Pseudomonas aeruginosa, UniProt P54292)
Construct: expressed in transfected cells; host or cells: E. coli sdiA variant co-transformed with pJN105R and pSC11 (RhlA::lacZ)
Method Description: cell-based
Test Parameters: read-out: Relative RhIR Activity (%) Antagonism 10, Table 3; 10 (μM)
Reported Endpoint: remaining activity at 10 µM (%)

Compound | Observed
CCC[C@H](O)C#Cc1ccc(F)c(F)c1 [Compound 33c, (S)-1-(3,4-Difluorophenyl)hex-1-yn-3-ol] | 59
CCCCCC(=O)C#Cc1ccc(F)c(F)c1 | 39
CCCCCC(=O)/C=C/c1ccc(F)c(F)c1 [Compound 13a, (E)-1-(3,4-Difluorophenyl)oct-1-en-3-one] | 53

These entries and their values trace back to patent US20220289657A1.
